Just for reference, a collection of fitness landscapes (doi:10.1126/science.1257360) is where these values come from.

Quick reference: enrichment ratio of the listed items.
B1: PhoQ; a variant is named by its letters at X, in order, P23837 (parent)
chain: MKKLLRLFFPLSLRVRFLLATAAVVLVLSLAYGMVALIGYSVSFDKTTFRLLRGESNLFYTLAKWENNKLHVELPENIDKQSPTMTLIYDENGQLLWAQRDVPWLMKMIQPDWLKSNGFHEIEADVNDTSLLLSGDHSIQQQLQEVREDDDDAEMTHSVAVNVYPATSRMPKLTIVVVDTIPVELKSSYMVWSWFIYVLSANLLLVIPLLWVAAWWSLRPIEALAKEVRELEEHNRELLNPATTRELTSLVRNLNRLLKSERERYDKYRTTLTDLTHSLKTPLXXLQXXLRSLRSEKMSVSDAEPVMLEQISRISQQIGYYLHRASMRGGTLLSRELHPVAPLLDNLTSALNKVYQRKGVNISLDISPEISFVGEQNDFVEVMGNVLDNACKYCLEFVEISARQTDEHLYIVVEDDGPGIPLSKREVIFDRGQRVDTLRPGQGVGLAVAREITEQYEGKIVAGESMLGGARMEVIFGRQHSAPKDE

variants of: B1; experiment: enrichment ratio after two sorts for PhoP signalling (ratio (wild type AVST 3.29)); higher = more functional; details: with PhoP (E. coli)
In all, about 140,000 sequences were measured (“enrichment ratio after two sorts for PhoP signalling”: median about 0, highest 2% from about 11 on). Only a selection was taken, and the highest values are over-represented in it overall.

Variant code: IQVM
enrichment ratio: ≤ 0.25
--
Variant code: TECV
enrichment ratio: 22.2
--
Variant code: PLAL
enrichment ratio: ≤ 0.25
--
Variant code: YHLL
enrichment ratio: ≤ 0.25
--
Variant code: SGLL
enrichment ratio: 19.8
--
Variant code: VILC
enrichment ratio: 0.339
--
Variant code: TNQV
enrichment ratio: 47.4
--
Variant code: GVGM
enrichment ratio: ≤ 0.25
--
Variant code: YRGI
enrichment ratio: ≤ 0.25
--
Variant code: DTPY
enrichment ratio: ≤ 0.25
--
Variant code: TQQK
enrichment ratio: ≤ 0.25
--
Variant code: QISE
enrichment ratio: ≤ 0.25
--
Variant code: ERDH
enrichment ratio: ≤ 0.25
--
Variant code: MECW
enrichment ratio: ≤ 0.25
--
Variant code: WYNQ
enrichment ratio: ≤ 0.25
--
Variant code: KSTE
enrichment ratio: ≤ 0.25
--
Variant code: TNMH
enrichment ratio: 15.7
--
Variant code: IMHI
enrichment ratio: ≤ 0.25
--
Variant code: EQTE
enrichment ratio: ≤ 0.25
--
Variant code: QECV
enrichment ratio: 8.7
--
Variant code: TYNL
enrichment ratio: 3.68
--
Variant code: LVPM
enrichment ratio: ≤ 0.25
--
Variant code: WCII
enrichment ratio: ≤ 0.25
--
Variant code: SFSE
enrichment ratio: ≤ 0.25
--
Variant code: SNSL
enrichment ratio: 16.8
--
Variant code: NECW
enrichment ratio: ≤ 0.25
--
Variant code: GLAL
enrichment ratio: 12.9
--
Variant code: SRCL
enrichment ratio: 6.4
--
Variant code: SLVM
enrichment ratio: 2.29
--
Variant code: SQTE
enrichment ratio: 26.5
--
Variant code: DGFG
enrichment ratio: ≤ 0.25
--
Variant code: FCVP
enrichment ratio: ≤ 0.25
--
Variant code: GYAL
enrichment ratio: ≤ 0.25
--
Variant code: SPVY
enrichment ratio: ≤ 0.25
--
Variant code: FGLL
enrichment ratio: 12.6
--
Variant code: NQVN
enrichment ratio: ≤ 0.25
--
Variant code: TECW
enrichment ratio: 37.6
--
Variant code: TNCV
enrichment ratio: 10
--
Variant code: SCVM
enrichment ratio: 8.76
--
Variant code: YWMV
enrichment ratio: ≤ 0.25
--
Variant code: HEVA
enrichment ratio: ≤ 0.25
--
Variant code: GKAF
enrichment ratio: ≤ 0.25
--
Variant code: WPPG
enrichment ratio: ≤ 0.25
--
Variant code: RHEW
enrichment ratio: ≤ 0.25
--
Variant code: SLVN
enrichment ratio: 1.02
--
Variant code: SAVM
enrichment ratio: 4.22
